- Test system: A Terreus 49
- assayNotes: MIC, YAG medium, A Terreus 49
- Format: cell-based, Aspergillus terreus
- studyConditions: Aspergillus terreus; YAG medium; read-out: MIC A Terreus 49
Mark each entry true (1) if its MIC sits below 0.008 µg/mL, and false (0) for all others.

Use these answered entries as a reference point.
CN1CCN(c2ccc(NC(=O)C(=O)c3c(-c4ccccc4)cc4ccccn34)cc2)CC1; false (0)
O=C(Nc1ccc(F)cc1F)C(=O)c1c(-c2cccc(F)c2)cc2ccccn12; false (0)
CN(C)c1ccc(NC(=O)C(=O)c2c(-c3ccccc3)cc3ccccn23)cn1; false (0)
Cc1ccc(NC(=O)C(=O)c2c(-c3cccs3)cc3ccccn23)cc1; false (0)
O=C(Nc1cccc(-c2ncco2)c1)C(=O)c1c(-c2ccccc2)cc2ccccn12; true (1)

Take the molecule O=C(Nc1cccc(C(F)(F)F)c1)C(=O)c1c(-c2ccccc2)cc2ccccn12 and say whether its MIC is less than 0.008 µg/mL.
true (1)

Given CN(C)c1ccc(NC(=O)C(=O)c2c(-c3ccccc3)cc3ccccn23)cc1-c1ncco1 , is recorded MIC strictly lower than 0.008 µg/mL?
false (0)

Does COC(=O)c1csc(NC(=O)C(=O)c2c(-c3ccccc3)cc3ccccn23)c1 have MIC strictly under 0.008 µg/mL?
false (0)

I'd appreciate it if you could check whether O=C(Nc1ccc(C(F)(F)F)cc1)C(=O)c1c(-c2ccccc2)cc2ccccn12 has MIC smaller than 0.008 µg/mL.
false (0)

Please determine if CC(=O)Cc1ccc(NC(=O)C(=O)c2c(-c3ccccc3)cc3ccccn23)cc1 is below 0.008 µg/mL in terms of MIC.
false (0)

MIC under 0.008 µg/mL? Item: CN(Cc1ccccc1)C(=O)c1cccc(NC(=O)C(=O)c2c(-c3ccccc3)cc3ccccn23)c1
false (0)

Say whether its MIC is strictly beneath 0.008 µg/mL. Entry: O=C(Nc1ccc(-c2nnn[nH]2)cc1)C(=O)c1c(-c2ccccc2)cc2ccccn12
false (0)

Please determine if CC(C)(C#N)c1cccc(NC(=O)C(=O)c2c(-c3ccccc3)cc3ccccn23)c1 is below 0.008 µg/mL in terms of MIC.
true (1)

###

- Tested on: A Terreus 49
- assayNotes: MIC, YAG medium, A Terreus 49
- Format: cell-based, Aspergillus terreus
- studyConditions: Aspergillus terreus; YAG medium; read-out: MIC A Terreus 49
Reported MIC values for the following molecules.
Entry rule: numbers only, all in µg/mL.

These recorded examples may help you get a feel for the data.
O=C(Nc1ccc(F)cc1)C(=O)c1c(-c2ccccc2)cc2ccccn12; 0.015
CN(C)c1ccc(NC(=O)C(=O)c2c(-c3cccnc3)cc3ccccn23)cn1; 12.5
Cc1ccc(Cl)cc1NC(=O)C(=O)c1c(-c2ccccc2)cc2ccccn12; 0.004
COc1ccc(NC(=O)C(=O)c2c(-c3ccccc3)cc3ccccn23)c(OC)c1; 0.004

// sample CCCCOC(=O)c1ccc(NC(=O)C(=O)c2c(-c3ccccc3)cc3ccccn23)cc1 , its MIC was 0.008

MIC for COc1ccc(NC(=O)C(=O)c2c(-c3cccs3)cc3ccccn23)c(OC)c1 is 0.062

MIC reported for this molecule Cc1ccc(NC(=O)C(=O)c2c(-c3ccccc3)cc3ccccn23)cc1 : 0.002

###

Some compounds, each annotated with its measured MIC A Terreus 4.
- Tested on: Aspergillus terreus
- assayNotes: MIC, YAG medium, Aspergillus terreus
- Assay type: cell-based
- studyConditions: YAG medium
Please state the figure in µg/mL; there is no need to write the unit.

Field: example entries. Status: answers known.
COc1ccc(NC(=O)C(=NOCCN(C)C)c2c(-c3ccccc3)cc3ccccn23)cc1 (mixture of isomers) [Example 295]; 6.25
COc1ccc(NC(=O)C(=O)c2c(-c3ccccc3)cc3c(C)cccn23)cn1 [Example 194]; 25
COc1ccc(NC(=O)C(=NOCCCN(C)C)c2c(-c3ccccc3)cc3ccccn23)cc1 (mixture of isomers) [Example 296]; 6.25
CC(=NO)c1ccc(NC(=O)C(=O)c2c(-c3ccccc3)cc3ccccn23)cc1 (mixture of isomers) [Example 250]; 0.1

Given item COc1ccc(NC(=O)C(=NOCCCC(=O)O)c2c(-c3ccccc3)cc3ccccn23)cc1 (mixture of isomers) [Example 297] , the value recorded as its MIC A Terreus 4 is 0.8

Consider CON=C(C)c1ccc(NC(=O)C(=O)c2c(-c3ccccc3)cc3ccccn23)cc1 (mixture of isomers) [Example 243] . Its measured MIC A Terreus 4 is 0.008

Query CON=C(C(=O)Nc1ccc(OC)cc1)c1c(-c2ccccc2)cc2ccccn12 (mixture of isomers) [Example 298] yields MIC A Terreus 4 of 0.2
